Record form. Attribute: Activity. Fill in for each entry.
measured-on: C-C motif chemokine 7 (Homo sapiens)
measurement-description: Binding affinity to human CCL7 at 100 uM by glycan microarray analysis
Numbers only, in %.

Known results for compounds:
compound-smiles	measured-on	Activity [%]
NCCOCCO[C@@H]1O[C@@H](C(=O)O)[C@@H](OS(=O)(=O)O)[C@H](O)[C@H]1OS(=O)(=O)O	C-C motif chemokine 7 (Homo sapiens)	94
NCCOCCO[C@@H]1O[C@@H](C(=O)O)[C@@H](O[C@@H]2O[C@@H](C(=O)O)[C@@H](O[C@@H]3O[C@@H](C(=O)O)[C@@H](O)[C@H](O)[C@H]3O)[C@H](O)[C@H]2O)[C@H](O)[C@H]1O	C-C motif chemokine 7 (Homo sapiens)	17

Input line: Query the reported Activity for C-C motif chemokine 7 (Homo sapiens); item: `NCCOCCO[C@@H]1O[C@@H](C(=O)O)[C@@H](O[C@@H]2O[C@@H](C(=O)O)[C@@H](O)[C@H](O)[C@H]2O)[C@H](O)[C@H]1O`
Output line: 30
